System: MS2 coat protein
Test: apparent KD of MS2 coat protein, switch OFF state (with FMN for OFF switches, without FMN for ON switches); designed switch direction (-1 OFF switch, 1 ON switch): -1; higher = weaker reporter binding
Details: FMN input: 0 or 200 uM; Eterna round: R93 (includes R88 designs)
apparent KD of MS2 coat protein listing for selected sequences.
Expressed in µM, but write only the number.

- recordSequence: "AGCUAGUCAGGAUAUACAAACAUGUCAAAAGACGUGAAGGGACAUGAGGAUCACCCAUGUAGAAGGGACUAGCA [Web Mod 74% 2]"
  quantitativeReadout: 0.217
- recordSequence: "AGAAAGUCAGGAUAUCAGAAUAAGUCGAAAACGACUAGUAAUGAGAAGGGACAUGAGGAUCACCCAUGUAAGAA [Ex4 sub 3]"
  quantitativeReadout: 0.0371
- recordSequence: "AAAAAACAUGAGGAUCACCCAUGUCAGGAUAUGCUAUGGAAAAUAAAAAUAAAACAUAGCAGAAGGGACACCAA [64%, Meechl, 2]"
  quantitativeReadout: 0.0581

Incoming: Data request, read-out apparent KD of MS2 coat protein, for AAACCACAUGAGGAUCACCCAUGUCAGGAUAUGAACGAAAUAAAAUAAAAAUAAAAGUUCAGAAGGGACGAAAA [Mat - Exclusion 1 - Eli mod - D17]
Outgoing: 0.0338

Incoming: Consider the sequence AAAAAGGUAGGAUAUGCAAAAAAUAAUUUAAAAAAAAAAAAACAUGAGGAUCACCCAUGUAGAAGGACCAAAAA [Design 2.0] and give its measured apparent KD of MS2 coat protein.
Outgoing: 0.0288

Incoming: Please give the measured apparent KD of MS2 coat protein for this sequence: AAAGGACGAGGAUAUACAUGAGGAUCACCCAUGUAAGAAGCAUAAUAAAAUAACUUAUGUAGAAGGCGUCCAAA [Mat - Exclusion 3 - Eli mod - D94]
Outgoing: 0.069

Incoming: I'd like to know its apparent KD of MS2 coat protein. The sequence in question is AACAGGGCAGGAUAUACAUGAGGAUCACCCAUGUAGGAAACAAGCAGAGUACCAAAAAGUAGAAGGGUCAUGGA [Ruby 31]
Outgoing: 0.0331

Incoming: Could you share which apparent KD of MS2 coat protein value was measured for AAAAAACAUGAGGAUCACCCAUGUAAGGAUAUGCUAGGAAAAAGAAAAAUAAAAACUAGCAGAAGGUACAUUAA [JL wbt mod 9] ?
Outgoing: 0.0383

Incoming: Data request, read-out apparent KD of MS2 coat protein, for AAAAUGUCAGGAUAUGUACGAAAAAAUAAAAAAAUAAAAGUACAGAAGGGACAUGAGGAUCACCCAUGUCAGGG [EX4 392: Minimal 4]
Outgoing: 0.0746

Incoming: What value of apparent KD of MS2 coat protein has been reported for the following sequence? AGAAAGUCAGGAUAUGUACAAAAUAAAAUAAAAAUAAAAGUACAGAAGGGACAUGAGGAUCACCCAUGUAAAGA [Mat - Exclusion 4 - Mayanna - D121]
Outgoing: 0.0524

Incoming: # apparent KD of MS2 coat protein lookup, item UCCUCACAUGAGGAUCACCCAUGUGAGGAUAUGUACAUCAGGAAAAAAAAACUGAUGUACAGAAGGCACAUGGA [Design 9: Super Stable G-C 2]
Outgoing: 0.0112

Incoming: Recorded apparent KD of MS2 coat protein of AAAAAGGUAGGAUAUACGAAAAAAAAAAGGUGAAAAAAAAAACAUGAGGAUCACCCAUGUAGAAGGACCAAAAA [Ex 2 sub 1 70% 3] , please.
Outgoing: 0.062

Incoming: Request the reported apparent KD of MS2 coat protein associated with AAAGGUACAGGAUAUGCGUGGAAAAAGUGUAUUCACCAACGACAUGAGGAUCACCCAUGUAGAAGGGUACCAAA [Mod of wbt1 from round 1]
Outgoing: 0.0318

###

Reported apparent KD of MS2 coat protein by item:
Test system: MS2 coat protein
Assay: apparent KD of MS2 coat protein; designed switch direction (-1 OFF switch, 1 ON switch): 1; higher = weaker reporter binding
Details: Eterna round: R95; input ligand: microRNA oligo, concentration not stated
State just the number; it will be interpreted in nM.

Take a look at these entries with their results.
- recordSequence: "GAGGAACAUGAGGAUCACCCAUGUAAAGGGUUUAAAGGAUAUUAUUGGGAGAAAGUAGGGUAAGAAGGUUGAUUGG [JR_SS1_Sub087] (puzzle: Same State 1)"
  apparent KD of MS2 coat protein / nM: 127
- recordSequence: "CGUCCGGCCUGUGCUGGACGGAAGCAUGUACAUGAGGAUCACCCAUGUUCAUGUGCAGGCUUUUUGCUCGUCUUGUG [salish99_mir208a_modof_jandersonlee_005] (puzzle: Sensor for hsa-mir-208a)"
  apparent KD of MS2 coat protein / nM: 13.4
- recordSequence: "UUCUCACAUGAGGAUCACCCAUGUGAGCCUCUGUGAGGAUAUCCGACAUAAUUAAUUGAAGGAGAAGGUACACGAG [Leer] (puzzle: Same State 1)"
  apparent KD of MS2 coat protein / nM: 4.78

Incoming: Give the measured apparent KD of MS2 coat protein of CAGCACUGUCGAGAGGAUAUGCGGUGAUGGACAUGAGGAUCACCCAUGUUAGCGACAGCAUCACGGCAGAAGGCUCUGCUGCUGC [Soteed Omei mod 36] (puzzle: Same State 2) .
Outgoing: 47.7

Incoming: What value of apparent KD of MS2 coat protein has been reported for the following sequence? GGGAAGAGGGACAAGGAUAUGUCAGGAGAGACAUGAGGAUCACCCAUGUGGAGGUUGGAGCAGAGACAGAAGGUGUACGGAGAGA [JR_SS2_Sub010] (puzzle: Same State 2)
Outgoing: 118

###

Test system: MS2 coat protein
Test: apparent KD of MS2 coat protein; designed switch direction (-1 OFF switch, 1 ON switch): -1; higher = weaker reporter binding
Conditions: input ligand: none
Respond with fulfilled for apparent KD of MS2 coat protein values of 40 nM and above, not fulfilled for values below.

Worked set:
- recordSequence: "GACUAGGGAGGAUAUAUUUGCAGUGUACCUCGGGUGAUCGCACUUGAGGAUCACCCAAGUAGAAGGCUCGAGGG [EX2 #26] (Eterna round: R97, puzzle: Exclusion 2)"
  assignedLabel: "fulfilled"
- recordSequence: "ACGAGGAUUACAGGAUAUGAAGCUAAAACGGCGUUAGAAGGGUAUACAGAGUUACAUGAGGAUCACCCAUGUUGUGAUUUCGAA [AK ExNG1-V2-4.1] (Eterna round: R96, puzzle: Exclusion NG 1)"
  assignedLabel: "fulfilled"

Incoming: API: above_or_equal(metric=apparent KD of MS2 coat protein, cutoff=40 nM) for item UGGAGAUAUAAGGAUAUAUUAGGAGGAGAGGAAAUAGAAGGUGUAACAUGAGGAUCACCCAUGUACCUCAUGUA [Default title] (Eterna round: R97, puzzle: Exclusion 6)
Outgoing: fulfilled

Incoming: Decide: is the reported value of apparent KD of MS2 coat protein for ACUUACUGAGGAUAUACAUAGAUUUACAUGAGGAUCACCCAUGUUCCUCUUUGUAUAAAUGUAGAAGGCAGAAGAA [Mat - Exclusion 5 - JL Mod - D58] (Eterna round: R97, puzzle: Exclusion 5) equal to or greater than 40 nM?
Outgoing: fulfilled

###

System: MS2 coat protein
Test: apparent KD of MS2 coat protein; designed switch direction (-1 OFF switch, 1 ON switch): -1; higher = weaker reporter binding
Conditions: Eterna round: R95; input ligand: none
Each item that follows carries a reported apparent KD of MS2 coat protein.
Output spec: scalar in nM, unitless text.

Here are 5 sequences together with their reported answers.
- recordSequence: "UUUAAUUUUUUUUUUUUACAAGCUUUUUGCUCGUCUUAUACAUGAGGAUCACCCAUGUAGAUGGAGGGUAAAUUAUC [JMF 86] (puzzle: Sensor v3, turn-off variant 2)"
  readoutUnits: "nM"
  apparent KD of MS2 coat protein: 14.5
- recordSequence: "AAAAGCAAGUAAAGAUUCUACAUGAGGAUCACCCAUGUGCUCGUCUUAUAAAGUACUAUCACGAAAGUGAUAGUACA [Sensor 3, v1 - 43] (puzzle: Sensor v3, turn-off variant 1)"
  readoutUnits: "nM"
  apparent KD of MS2 coat protein: 17.6
- recordSequence: "CUGAGCAGACGGAGAUCCAACAUGAGGAUCACCCAUGUCUCAAAAGCUUUUUGCUUGUCUUAUCCUCCUCUGUUCAC [Esqutian] (puzzle: Sensor v3, turn-off variant 1)"
  readoutUnits: "nM"
  apparent KD of MS2 coat protein: 12.3
- recordSequence: "GCAAGUUUUUUGUUUUUUAACAUGAGGAUCACCCAUGUAUUUUUAUAGUAUGUGUGAUUAAGAUCUUGUGGUCUUAG [JR_SV3TOV1_Sub101] (puzzle: Sensor v3, turn-off variant 1)"
  readoutUnits: "nM"
  apparent KD of MS2 coat protein: 62.9
- recordSequence: "GCGUCGAGUGUGAGGAUAUGCUGGUCAUAAGAUCAGCAGAAGGCACAUGAGGAUCACCCAUGUGAAAACGAUGC [Mat - Exclusion 4 - JL Mod - D69] (puzzle: Brourd's mod of Exclusion 4)"
  readoutUnits: "nM"
  apparent KD of MS2 coat protein: 20.6

Incoming: Which apparent KD of MS2 coat protein is reported for this sequence? GGUUUUUUUUUCCUUUCUUACAUGAGGAUCACCCAUGUUUCUUGUCGUGCUCGCGUUGCUCGUCUGUCUGUCUGUUG [salish99_TOv1_r3_075(!)] (puzzle: Sensor v3, turn-off variant 1)
Outgoing: 56.2

Incoming: So what's the measured apparent KD of MS2 coat protein for this one? AGAUGGCGAGGAUAUACAUGAGGAUCACCCAUGUGAGAAGAAAGAGUGAGGAAGAAAAGUAGAAGGCGCUGUCA [Mat - Exclusion 3 - Mod of Salish D19] (puzzle: Exclusion 3)
Outgoing: 76.1
